We begin with a simple list: items and their reported melting point.
Form entry: value (°C) — number only.

O=c1ccc2c(OCCCC3CCCCC3)c3ccoc3cc2o1 = 115
O=c1ccc2c(OCCCCCc3ccccc3)c3ccoc3cc2o1 = 94.5
O=c1ccc2c(OCCCc3ccccc3)c3ccoc3cc2o1 = 109
O=c1ccc2c(OCCC3CCCCC3)c3ccoc3cc2o1 = 117
CC(COc1c2ccoc2cc2oc(=O)ccc12)c1ccccc1 (stereo not drawn) = 141.5

input: Query (molecule): O=c1ccc2c(OCc3ccccc3)c3ccoc3cc2o1 ; field requested: melting point
output: 136

====

# SYSTEM: Nav1.2 (Mus musculus, UniProt B1AWN6)
# Construct: endogenous in cells
# Sequence (B1AWN6 whole entry): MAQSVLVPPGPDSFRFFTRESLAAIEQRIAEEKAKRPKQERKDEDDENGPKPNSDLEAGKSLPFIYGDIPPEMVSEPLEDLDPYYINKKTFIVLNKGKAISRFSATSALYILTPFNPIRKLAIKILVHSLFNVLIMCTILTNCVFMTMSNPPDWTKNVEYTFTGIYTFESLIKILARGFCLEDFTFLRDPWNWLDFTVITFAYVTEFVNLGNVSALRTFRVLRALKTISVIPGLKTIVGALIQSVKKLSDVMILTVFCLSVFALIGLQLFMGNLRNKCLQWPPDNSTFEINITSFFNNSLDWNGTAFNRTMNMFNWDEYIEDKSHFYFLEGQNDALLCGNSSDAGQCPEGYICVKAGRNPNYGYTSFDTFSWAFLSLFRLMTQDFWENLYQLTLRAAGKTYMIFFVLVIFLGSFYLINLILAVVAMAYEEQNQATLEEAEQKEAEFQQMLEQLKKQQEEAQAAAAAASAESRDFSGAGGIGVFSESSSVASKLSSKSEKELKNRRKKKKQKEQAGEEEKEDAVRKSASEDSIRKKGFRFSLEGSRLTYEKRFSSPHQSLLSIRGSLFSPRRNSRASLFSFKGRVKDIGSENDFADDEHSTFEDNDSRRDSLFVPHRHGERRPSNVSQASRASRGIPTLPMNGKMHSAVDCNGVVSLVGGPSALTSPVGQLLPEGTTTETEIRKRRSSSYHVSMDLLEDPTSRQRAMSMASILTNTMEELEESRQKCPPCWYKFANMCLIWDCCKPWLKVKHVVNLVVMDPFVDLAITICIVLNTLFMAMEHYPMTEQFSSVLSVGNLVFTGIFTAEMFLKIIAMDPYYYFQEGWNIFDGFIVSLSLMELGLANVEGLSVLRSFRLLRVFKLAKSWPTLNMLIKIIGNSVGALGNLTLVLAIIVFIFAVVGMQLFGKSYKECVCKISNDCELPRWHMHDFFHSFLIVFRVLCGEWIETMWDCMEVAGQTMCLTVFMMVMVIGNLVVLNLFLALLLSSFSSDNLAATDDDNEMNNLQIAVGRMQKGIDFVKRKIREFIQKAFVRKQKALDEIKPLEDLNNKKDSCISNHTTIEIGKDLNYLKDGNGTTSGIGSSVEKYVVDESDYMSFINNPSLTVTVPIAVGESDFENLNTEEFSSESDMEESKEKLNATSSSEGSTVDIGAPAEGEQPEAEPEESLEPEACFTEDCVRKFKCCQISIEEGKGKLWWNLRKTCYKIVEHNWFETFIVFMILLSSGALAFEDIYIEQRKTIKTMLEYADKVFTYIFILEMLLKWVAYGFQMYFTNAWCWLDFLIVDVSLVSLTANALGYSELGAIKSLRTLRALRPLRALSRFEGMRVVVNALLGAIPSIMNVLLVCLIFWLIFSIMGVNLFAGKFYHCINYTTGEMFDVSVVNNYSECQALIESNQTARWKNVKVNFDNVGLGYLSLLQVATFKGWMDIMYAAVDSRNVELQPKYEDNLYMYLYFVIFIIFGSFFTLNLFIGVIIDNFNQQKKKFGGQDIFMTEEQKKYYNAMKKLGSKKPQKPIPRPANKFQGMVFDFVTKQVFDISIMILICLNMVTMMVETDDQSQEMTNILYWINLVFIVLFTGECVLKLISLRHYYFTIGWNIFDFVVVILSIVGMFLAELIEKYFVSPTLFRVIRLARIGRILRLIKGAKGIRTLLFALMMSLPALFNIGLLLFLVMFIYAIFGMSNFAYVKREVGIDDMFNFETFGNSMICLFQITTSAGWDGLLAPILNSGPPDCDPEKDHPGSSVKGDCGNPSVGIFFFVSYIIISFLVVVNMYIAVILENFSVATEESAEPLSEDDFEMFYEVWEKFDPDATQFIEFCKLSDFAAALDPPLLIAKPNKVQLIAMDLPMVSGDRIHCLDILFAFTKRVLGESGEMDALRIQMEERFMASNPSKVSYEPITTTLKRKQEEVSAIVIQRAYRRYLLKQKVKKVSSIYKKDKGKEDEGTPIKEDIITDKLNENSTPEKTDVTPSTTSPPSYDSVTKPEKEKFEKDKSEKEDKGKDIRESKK
# ASSAY_NAME: Whole-cell patch-clamp, sodium channel Nav1.2 (N1E-115)
# Assay type: cell-based
# CONDITION_PARAMETERS: ratio Kd Nav1.2/Kd Kv1.3
MEASURED_QUANTITY: S (selectivity over Nav1.2), S = Kd Nav1.2/Kd Kv1.3

See these solved cases before continuing.
O=c1ccc2c(OCCC3CCCCC3)c3ccoc3cc2o1 = 11
O=c1ccc2c(OCCc3ccccc3)c3ccoc3cc2o1 = 41

input: Which S (selectivity over Nav1.2), S = Kd Nav1.2/Kd Kv1.3 reading was recorded for the compound O=c1ccc2c(OCCCC3CCCCC3)c3ccoc3cc2o1 ?
output: 8

input: Which S (selectivity over Nav1.2), S = Kd Nav1.2/Kd Kv1.3 value is on record for O=c1ccc2c(OCc3ccc(-c4ccccc4)cc3)c3ccoc3cc2o1 ?
output: 286

input: Quick check: S (selectivity over Nav1.2), S = Kd Nav1.2/Kd Kv1.3 of O=c1ccc2c(OC/C=C/c3ccccc3)c3ccoc3cc2o1 ?
output: 41

input: Find the recorded S (selectivity over Nav1.2), S = Kd Nav1.2/Kd Kv1.3 belonging to O=c1ccc2c(OCCCc3ccccc3)c3ccoc3cc2o1 and report it.
output: 397

input: Requested read-out: S (selectivity over Nav1.2), S = Kd Nav1.2/Kd Kv1.3. Entry: O=c1ccc2c(OCCCCCc3ccccc3)c3ccoc3cc2o1
output: 262

input: Name the recorded S (selectivity over Nav1.2), S = Kd Nav1.2/Kd Kv1.3 for O=c1ccc2c(OCc3ccccc3)c3ccoc3cc2o1 .
output: 43

input: // lookup S (selectivity over Nav1.2), S = Kd Nav1.2/Kd Kv1.3 for CC(COc1c2ccoc2cc2oc(=O)ccc12)c1ccccc1 (centres unmarked)
output: 25

input: Recorded S (selectivity over Nav1.2), S = Kd Nav1.2/Kd Kv1.3 for O=c1ccc2c(OC(c3ccccc3)c3ccccc3)c3ccoc3cc2o1 , please?
output: 38

input: Which S (selectivity over Nav1.2), S = Kd Nav1.2/Kd Kv1.3 is listed for O=c1ccc2c(OCC3CCCCC3)c3ccoc3cc2o1 ?
output: 48

====

Here the recorded melting point is given for each entry.
In your response, put the unit directly after the numeric value.

Worked examples, 4 compounds total:
O=c1ccc2c(OCCc3ccccc3)c3ccoc3cc2o1 = 154.5 °C
O=c1ccc2c(OC/C=C/c3ccccc3)c3ccoc3cc2o1 = 140 °C
O=c1ccc2c(OCc3ccc(-c4ccccc4)cc3)c3ccoc3cc2o1 = 187 °C
O=c1ccc2c(OCC3CCCCC3)c3ccoc3cc2o1 = 153.5 °C

input: What measured melting point goes with O=c1ccc2c(OC(c3ccccc3)c3ccccc3)c3ccoc3cc2o1 ?
output: 173 °C

====

# ASSAY_NAME: LogP determined by HPLC
# Assay type: physicochemical
Label True when chromatographic logP is at or above 4; anything below gets False.

Some solved entries appear below for comparison.
CC(COc1c2ccoc2cc2oc(=O)ccc12)c1ccccc1 (stereo not drawn) = False
O=c1ccc2c(OCCc3ccccc3)c3ccoc3cc2o1 = False
O=c1ccc2c(OC/C=C/c3ccccc3)c3ccoc3cc2o1 = False

input: Evaluate O=c1ccc2c(OC(c3ccccc3)c3ccccc3)c3ccoc3cc2o1 : chromatographic logP at minimum 4?
output: True

input: Could you please find out whether O=c1ccc2c(OCCCC3CCCCC3)c3ccoc3cc2o1 has chromatographic logP that meets 4 or exceeds it?
output: True

input: Is reported chromatographic logP greater than or equal to 4 here: O=c1ccc2c(OCc3ccc(-c4ccccc4)cc3)c3ccoc3cc2o1
output: True

====

Below: a set of entries, each annotated with reported Kd.
# SYSTEM: Kv1.3 (UniProt P16390)
# ASSAY_NAME: Whole-cell patch-clamp on a cell line stably expressing Kv1.3
# CONDITION_PARAMETERS: whole-cell patch-clamp, cell line stably expressing Kv1.3; mean ± S.D.
Respond with the bare value in nM.

Example entries and their recorded answers appear below.
O=c1ccc2c(OC/C=C/c3ccccc3)c3ccoc3cc2o1 = 172
O=c1ccc2c(OCCC3CCCCC3)c3ccoc3cc2o1 = 132
O=c1ccc2c(OC(c3ccccc3)c3ccccc3)c3ccoc3cc2o1 = 68
O=c1ccc2c(OCC3CCCCC3)c3ccoc3cc2o1 = 138
O=c1ccc2c(OCCCCCc3ccccc3)c3ccoc3cc2o1 = 6.1
O=c1ccc2c(OCCCc3ccccc3)c3ccoc3cc2o1 = 6.3
CC(COc1c2ccoc2cc2oc(=O)ccc12)c1ccccc1 (centres unmarked) = 72
O=c1ccc2c(OCc3ccccc3)c3ccoc3cc2o1 = 350
O=c1ccc2c(OCCCC3CCCCC3)c3ccoc3cc2o1 = 144
O=c1ccc2c(OCc3ccc(-c4ccccc4)cc3)c3ccoc3cc2o1 = 3.5

--- query ---
input: Give its Kd value. Item: O=c1ccc2c(OCCc3ccccc3)c3ccoc3cc2o1
output: 169

====

# ASSAY_NAME: LogP determined by HPLC
# Assay type: physicochemical
Strictly below 4 in chromatographic logP: 1. Otherwise: -1.

Example cases with answers are listed next.
O=c1ccc2c(OCCCCc3ccccc3)c3ccoc3cc2o1 = -1
O=c1ccc2c(OCC3CCCCC3)c3ccoc3cc2o1 = -1
O=c1ccc2c(OCCC3CCCCC3)c3ccoc3cc2o1 = -1
O=c1ccc2c(OCCCCCc3ccccc3)c3ccoc3cc2o1 = -1

Continue with the next molecule.
input: I wonder whether O=c1ccc2c(OCc3ccccc3)c3ccoc3cc2o1 has chromatographic logP below 4. Can you tell?
output: 1
